Test: NCI Yeast Anticancer Drug Screen. Data for the cln2 rad14 strain (AID 165);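 also: 0% = growth equal to vehicle treated cultures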
Details: S. cerevisiae cln2 rad14 strain, at 50.0 µM
Compounds without any hit were thinned out: in the full panel of roughly 79,000, 15% have a hit. Activity calls are given as the source filed them. Rule as the data show it: active = growth inhibition above about 70%; inactive = the rest. Where a SMILES comes first, the peptide text is derived from it. [ ]: non-standard residue; d: D form. The star is where a group is joined. Cbz = O=C(OCc1ccccc1)*; Nva = CCC[CH](N)C(=O)O
Possible outcomes: 1 (yes) for active, 0 (no) for inactive

{"COMPOUND": "Nc1nc(SCC(=O)O)[nH]c(=O)c1NS(=O)(=O)c1ccccc1[N+](=O)[O-]", "ASSIGNED LABEL": "0 (no)"}
{"COMPOUND": "O=[S@]1Nc2cc(N=Nc3ccccc3)ccc2S1", "ASSIGNED LABEL": "0 (no)"}
{"COMPOUND": "CCCCCCCCCCCCCCCCn1cnc2c(=S)nc[nH]c21", "ASSIGNED LABEL": "0 (no)"}
{"COMPOUND": "CC1=CC(=O)C(=O)C2=C1OC1(C2)C(C)CCC2C3(C)CCC(O)C(C)(C)C3CCC21C (centres undefined)", "ASSIGNED LABEL": "1 (yes)"}
{"COMPOUND": "C=C1C(=O)OC2C1C(OC(=O)/C(=C/CO)CO)CC1(CO1)C1CC=C(C)C21 (centres undefined)", "ASSIGNED LABEL": "0 (no)"}
{"COMPOUND": "Cc1cnc2cccc(C)c2c1Cl", "ASSIGNED LABEL": "0 (no)"}
{"COMPOUND": "C=CCC(CC=C)(C(=O)Nc1ccc2nc(C)cc(N)c2c1)C(=O)Nc1ccc2nc(C)cc(N)c2c1", "ASSIGNED LABEL": "0 (no)"}
{"COMPOUND": "CC1=C(C)CC2C(=O)c3c(O)ccc(O)c3C(=O)C2C1 (centres undefined)", "ASSIGNED LABEL": "0 (no)"}
{"COMPOUND": "NC(=O)c1ccccc1C(N)=O", "ASSIGNED LABEL": "0 (no)"}
{"COMPOUND": "O=C(C(=O)c1ccccc1)c1ccccc1", "ASSIGNED LABEL": "0 (no)"}
{"COMPOUND": "CCOC(=O)/C(=N\\O)C(C)(C)c1ccnc2ccccc12", "ASSIGNED LABEL": "0 (no)"}
{"COMPOUND": "O=[n+]1c2c(n([O-])c3cc(Cl)c(Cl)cc31)CCCC2", "ASSIGNED LABEL": "0 (no)"}
{"COMPOUND": "COc1ccc([N+](=O)[O-])cc1NC(=O)c1ccc(Cl)cc1", "ASSIGNED LABEL": "0 (no)"}
{"COMPOUND": "COC(=O)c1ccc(O)c(CN(C)C)c1", "ASSIGNED LABEL": "0 (no)"}
{"COMPOUND": "COP(=O)(O)OP(=O)(O)OC", "ASSIGNED LABEL": "0 (no)"}
{"COMPOUND": "CCN(CC)N1C(=O)[N+](CC)(CC)N=C1[O-]", "ASSIGNED LABEL": "0 (no)"}
{"COMPOUND": "CCCC(NC(=O)OCc1ccccc1)C(=O)NC(CCSC)C(N)=O (centres undefined) (Cbz-[Nva]-Met-NH2; configuration not given here)", "ASSIGNED LABEL": "0 (no)"}
{"COMPOUND": "Cc1ccc([N+](=O)[O-])cc1NC(=O)C(=O)Cc1nc2ccc(C(=O)c3ccccc3)cc2[nH]c1=O", "ASSIGNED LABEL": "0 (no)"}
{"COMPOUND": "O=C(NC12CC3CC(CC(C3)C1)C2)C(O)C(O)C(O)C(O)CO (centres undefined)", "ASSIGNED LABEL": "0 (no)"}
{"COMPOUND": "C=C(Cl)CSC(C)(C)C", "ASSIGNED LABEL": "0 (no)"}
{"COMPOUND": "Cc1cc[n+](Cc2ccccc2Cl)c(C)c1", "ASSIGNED LABEL": "0 (no)"}
{"COMPOUND": "O=C(c1ccc([N+](=O)[O-])cc1)c1cc2ccccc2oc1=O", "ASSIGNED LABEL": "0 (no)"}
{"COMPOUND": "CCCCCCOC(=O)CCBr", "ASSIGNED LABEL": "0 (no)"}
{"COMPOUND": "COc1ccc(-c2nnc3n(C)c4ccccc4n3c2=O)cc1", "ASSIGNED LABEL": "0 (no)"}
{"COMPOUND": "O=C1C=CC2(CC=CCC2)CC1 (centres undefined)", "ASSIGNED LABEL": "0 (no)"}
{"COMPOUND": "COc1ccc(CC(C)SC(CC(=O)O)C(=O)O)cc1 (centres undefined)", "ASSIGNED LABEL": "0 (no)"}
{"COMPOUND": "O=c1[nH]nc(Cc2ccc(Cl)cc2)n1O", "ASSIGNED LABEL": "0 (no)"}
{"COMPOUND": "O=[n+]1c2ccccc2n([O-])c2cn(-c3ccccc3)c(-c3ccccc3)c21", "ASSIGNED LABEL": "1 (yes)"}
{"COMPOUND": "CCCCCCCCC1CCC(=O)O1 (centres undefined)", "ASSIGNED LABEL": "0 (no)"}
{"COMPOUND": "CC(=N/NC(=S)NCCN1CCCC1)/C(C)=N\\NC(=S)NCCN1CCCC1", "ASSIGNED LABEL": "0 (no)"}
{"COMPOUND": "COC(=O)c1cccc(=O)o1", "ASSIGNED LABEL": "0 (no)"}
{"COMPOUND": "CC(O)COc1ccc(Cl)cc1Cl (centres undefined)", "ASSIGNED LABEL": "0 (no)"}
{"COMPOUND": "CCOc1cc(/C=C2\\N=C(c3ccccc3)OC2=O)ccc1O", "ASSIGNED LABEL": "0 (no)"}
{"COMPOUND": "CC1=CC(=O)C2CC1C2(C)C (centres undefined)", "ASSIGNED LABEL": "0 (no)"}
{"COMPOUND": "COc1cc(C2(C)SCCCS2)cc(OC)c1OC", "ASSIGNED LABEL": "0 (no)"}
{"COMPOUND": "CCOC1NC(=O)Oc2ccccc21 (centres undefined)", "ASSIGNED LABEL": "0 (no)"}
{"COMPOUND": "CNC(=O)C(C)NC(=O)C(Cc1ccccc1)NC(=O)OC(C)(C)C (centres undefined)", "ASSIGNED LABEL": "0 (no)"}
{"COMPOUND": "COc1ccc(C2(CN(C)C)COc3cc(OC)c(OC)cc3C2=O)cc1OC (centres undefined)", "ASSIGNED LABEL": "0 (no)"}
{"COMPOUND": "O=c1[nH]c(=O)c2nccnc2[nH]1", "ASSIGNED LABEL": "0 (no)"}
{"COMPOUND": "COC(=O)Cc1cccnc1", "ASSIGNED LABEL": "0 (no)"}
{"COMPOUND": "Cc1ccc(NC(=O)c2cc(S(=O)(=O)n3cc[nH]c3=O)c(S)cc2Cl)cc1", "ASSIGNED LABEL": "0 (no)"}
{"COMPOUND": "O=C1c2ccccc2C(=Cc2cccnc2)c2ccccc21", "ASSIGNED LABEL": "0 (no)"}
{"COMPOUND": "O=C(CC[N+](=O)[O-])OCC1OC(OC(=O)CC[N+](=O)[O-])C(O)C(O)C1O (centres undefined)", "ASSIGNED LABEL": "0 (no)"}
{"COMPOUND": "O=C(O)C1C2C3CCC(C3)C12 (centres undefined)", "ASSIGNED LABEL": "0 (no)"}
{"COMPOUND": "O=[N+]([O-])c1ccc(SCN(CSc2ccc([N+](=O)[O-])cc2)Cc2ccccc2)cc1", "ASSIGNED LABEL": "0 (no)"}
{"COMPOUND": "O=C1c2ccccc2CCC12OC2c1ccccn1 (centres undefined)", "ASSIGNED LABEL": "0 (no)"}
{"COMPOUND": "c1ccc(O[Si](Oc2ccccc2)(Oc2ccccc2)Oc2ccccc2)cc1", "ASSIGNED LABEL": "0 (no)"}
{"COMPOUND": "CCOC(=O)C(C)(C)Oc1ccc2c(C)c(-c3ccc(Cl)cc3)c(=O)oc2c1", "ASSIGNED LABEL": "0 (no)"}
{"COMPOUND": "CC1(C#N)CCCC(c2ccccc2)(c2ccccc2)C1=O (centres undefined)", "ASSIGNED LABEL": "0 (no)"}

# credit: PubChem BioAssay (NCI)
